Every entry's value here was drawn from ChEMBL document CHEMBL1134317.

Tested on: NSO mouse myeloma cells (Mus musculus)
assay-notes: Cytotoxicity required to inhibit cell proliferation by 50% (tritiated thymidine incorporation in proliferating NSO mouse myeloma cells)
recorded-metric: log10(CC50) (log10 of the value in µM)

compound	log10(CC50)
Cn1c(C[C@@H]2CCCO2)cc(=O)n(C)c1=O	3.09
Cn1c(OC2CCCCC2)nc(CC2(C)CCCO2)cc1=O (stereo unspecified)	2.91
COc1nc(CC2(C)CCCO2)cc(=O)n1C (stereo unspecified)	3.21
CCCCOc1nc(CC2CCCO2)cc(=O)n1C (stereo unspecified)	2.76
CCCOc1nc(CC2(C)CCCO2)cc(OC)n1 (stereo unspecified)	2.57
Cn1c([C@H]2O[C@H]2c2ccccc2)cc(=O)n(C)c1=O (racemic)	0.89
Cn1c(CC2(C(C)(C)C)CO2)cc(=O)n(C)c1=O (stereo unspecified)	0.90

---

System: NSO mouse myeloma cells (Mus musculus)
assay-notes: Cytotoxicity required to inhibit cell proliferation by 50% (tritiated thymidine incorporation in proliferating NSO mouse myeloma cells)

compound	CC50
C[C@H]1O[C@@]1(C)Cc1cc(=O)n(C)c(=O)n1C	89 µM
COc1nc(CC2CCCO2)cc(=O)n1C (configuration not stated)	1220 µM
Cn1c(CC2(c3ccccc3)CO2)cc(=O)n(C)c1=O (configuration not stated)	3.7 µM
Cn1c(C2OC2(C)c2ccccc2)cc(=O)n(C)c1=O (configuration not stated)	7.3 µM
Cn1c(CC23CCC[C@H]2O3)cc(=O)n(C)c1=O (some centres not stated)	8.4 µM
CCCCOc1nc(CC2(C)CCCO2)cc(=O)n1C (configuration not stated)	1080 µM
COc1nc(CC2(c3ccccc3)CCCO2)cc(=O)n1C (configuration not stated)	130 µM
CCCOc1nc(CC2CCCO2)cc(=O)n1C (configuration not stated)	1020 µM
Cn1c(OC2CCCCC2)nc(CC2(c3ccccc3)CO2)cc1=O (configuration not stated)	> 294 µM
CCCOc1nc(CC2(c3ccccc3)CCCO2)cc(=O)n1C (configuration not stated)	170 µM
CCCOc1nc(CC2(C)CCCO2)cc(=O)n1C (configuration not stated)	860 µM
CCCCOc1nc(CC2(c3ccccc3)CCCO2)cc(=O)n1C (configuration not stated)	90 µM

---

Here the recorded MCC is given for each entry.
assay-notes: Minimum toxic concentration required to cause a microscopically detectable alteration of normal cell morphology of MDCK cells
condition-context: Sendai virus, read-out: MTC

compound	result-modifier	MCC / µM
Cn1c(C2OC2(C)c2ccccc2)cc(=O)n(C)c1=O (centres undefined)	>	0.81
CCCOc1nc(CC2(C)CCCO2)cc(=O)n1C (centres undefined)	>	376
CCCCOc1nc(CC2(c3ccccc3)CCCO2)cc(=O)n1C (centres undefined)	=	292
CCCCOc1nc(CC2CCCO2)cc(=O)n1C (centres undefined)	=	376
Cn1c(C[C@]2(C)CCCO2)cc(=O)n(C)c1=O	>	223
COc1nc(CC2(c3ccccc3)CCCO2)cc(=O)n1C (centres undefined)	=	383
CCCOc1nc(CC2(C)CCCO2)cc(OC)n1 (centres undefined)	>	305
CCCOc1nc(CC2(c3ccccc3)CCCO2)cc(=O)n1C (centres undefined)	=	305
Cn1c(CC2(c3ccccc3)CO2)cc(=O)n(C)c1=O (centres undefined)	=	0.37
COc1nc(CC2(c3ccccc3)CO2)cc(=O)n1C (centres undefined)	=	735
CCCCOc1nc(CC2(C)CCCO2)cc(=O)n1C (centres undefined)	=	373
CC1O[C@]1(C)Cc1cc(=O)n(C)c(OC2CCCCC2)n1 (mixture of isomers)	=	342
Cn1c([C@H]2O[C@H]2c2ccccc2)cc(=O)n(C)c1=O (racemic)	>	0.8
Cn1c(C[C@]2(c3ccccc3)CCCO2)cc(=O)n(C)c1=O	>	333
Cn1c(OC2CCCCC2)nc(CC2(C)CCCO2)cc1=O (centres undefined)	=	326
CCCOc1nc(CC23CCCC[C@H]2O3)cc(=O)n1C (some centres undefined)	>	352
COc1nc(CC2CCCO2)cc(=O)n1C (centres undefined)	=	446
Cn1c(C[C@@H]2CCCO2)cc(=O)n(C)c1=O	=	446
CCCOc1nc(CC2CCCO2)cc(=O)n1C (centres undefined)	=	397
Cn1c(CC23CCC[C@H]2O3)cc(=O)n(C)c1=O (some centres undefined)	>	0.84
COc1nc(CC2(C)CCCO2)cc(=O)n1C (centres undefined)	=	893
C[C@@H]1O[C@@]1(C)Cc1cc(=O)n(C)c(=O)n1C	>	2
CCCOc1nc(CC2(c3ccccc3)CO2)cc(=O)n1C (centres undefined)	=	330
C[C@H]1O[C@@]1(C)Cc1cc(=O)n(C)c(=O)n1C	>	2
Cn1c(CC23CCCC[C@@H]2O3)cc(=O)n(C)c1=O (some centres undefined)	>	2
Cn1c(CC2(C)CO2)cc(=O)n(C)c1=O (centres undefined)	=	0.48
Cn1c([C@H]2O[C@@H]2c2ccccc2)cc(=O)n(C)c1=O	=	380
Cn1c(OC2CCCCC2)nc(CC2(c3ccccc3)CO2)cc1=O (centres undefined)	=	294
Cn1c(CC2(C(C)(C)C)CO2)cc(=O)n(C)c1=O (centres undefined)	>	0.79

---

Here the recorded pEC50 is given for each entry.
System: MDCK
assay-notes: Inhibitory activity against Parainfluenza 1 (Sendai) virus (PIV) in MDCK cells
Assay type: functional
condition-context: Canis lupus familiaris, read-out: ED50 (the source's name)
pEC50: −log10 of the molar value.
recorded-metric: pEC50

compound	result-value
Cn1c([C@H]2O[C@H]2c2ccccc2)cc(=O)n(C)c1=O (racemic)	6.42
CCCOc1nc(CC2(C)CCCO2)cc(=O)n1C (stereo unspecified)	3.73
CCCOc1nc(CC2(C)CCCO2)cc(OC)n1 (stereo unspecified)	3.57
COc1nc(CC2(c3ccccc3)CCCO2)cc(=O)n1C (stereo unspecified)	3.78
Cn1c([C@H]2O[C@@H]2c2ccccc2)cc(=O)n(C)c1=O	3.71
Cn1c(C[C@@H]2CCCO2)cc(=O)n(C)c1=O	3.47

---

Test system: NSO mouse myeloma cells (Mus musculus)
assay-notes: Cytotoxicity required to inhibit cell proliferation by 50% (tritiated thymidine incorporation in proliferating NSO mouse myeloma cells)
recorded-metric: CC50 (µM)

compound	result-modifier	result-value
Cn1c(C[C@]2(c3ccccc3)CCCO2)cc(=O)n(C)c1=O	=	547
C[C@@H]1O[C@@]1(C)Cc1cc(=O)n(C)c(=O)n1C	=	89
Cn1c(CC23CCCC[C@@H]2O3)cc(=O)n(C)c1=O (stereo partly specified)	=	40
Cn1c(C[C@]2(C)CCCO2)cc(=O)n(C)c1=O	=	1380
CCCOc1nc(CC23CCCC[C@H]2O3)cc(=O)n1C (stereo partly specified)	>	352
Cn1c(CC2(C)CO2)cc(=O)n(C)c1=O (stereo unspecified)	=	4

---

Here the recorded EC50 is given for each entry.
Tested on: MDCK
assay-notes: Inhibitory activity against Parainfluenza 1 (Sendai) virus (PIV) in MDCK cells
Format: functional
condition-context: Canis lupus familiaris, read-out: ED50 (the source's name)

compound	experimental-system	result-modifier	EC50 (µM)
Cn1c(CC23CCCC[C@@H]2O3)cc(=O)n(C)c1=O (stereo not given in full)	MDCK	>	2
CCCCOc1nc(CC2(c3ccccc3)CCCO2)cc(=O)n1C (stereo not given)	MDCK	=	146
Cn1c(C[C@]2(c3ccccc3)CCCO2)cc(=O)n(C)c1=O	MDCK	=	116
COc1nc(CC2(C)CCCO2)cc(=O)n1C (stereo not given)	MDCK	=	893
Cn1c(C[C@]2(C)CCCO2)cc(=O)n(C)c1=O	MDCK	=	1.11

---

Test system: MDCK
assay-notes: Inhibitory activity against Parainfluenza 1 (Sendai) virus (PIV) in MDCK cells
Format: functional
condition-context: Canis lupus familiaris, read-out: ED50 (the source's name)

molecule	result-modifier	EC50 [µM]
CCCOc1nc(CC2CCCO2)cc(=O)n1C (configuration not stated)	=	300
Cn1c(OC2CCCCC2)nc(CC2(C)CCCO2)cc1=O (configuration not stated)	=	164
CCCCOc1nc(CC2(C)CCCO2)cc(=O)n1C (configuration not stated)	=	186
COc1nc(CC2CCCO2)cc(=O)n1C (configuration not stated)	>	446
COc1nc(CC2(c3ccccc3)CO2)cc(=O)n1C (configuration not stated)	=	0.37
CCCOc1nc(CC2(c3ccccc3)CCCO2)cc(=O)n1C (configuration not stated)	=	152
CCCCOc1nc(CC2CCCO2)cc(=O)n1C (configuration not stated)	=	195

---

Here the recorded CC50 is given for each entry.
Test system: NSO mouse myeloma cells (Mus musculus)
assay-notes: Cytotoxicity required to inhibit cell proliferation by 50% (tritiated thymidine incorporation in proliferating NSO mouse myeloma cells)

compound	CC50
COc1nc(CC2(c3ccccc3)CO2)cc(=O)n1C (centres undefined)	> 360 µM
CCCOc1nc(CC2(c3ccccc3)CO2)cc(=O)n1C (centres undefined)	> 330 µM
Cn1c([C@H]2O[C@@H]2c2ccccc2)cc(=O)n(C)c1=O	> 380 µM
CC1O[C@]1(C)Cc1cc(=O)n(C)c(OC2CCCCC2)n1 (mixture of isomers)	> 342 µM
